- methodNotes: physchem
- conditionsUsed: buffer, pH 7.4
- Description: Lipophilicity, log D of the compound at pH 7.4
In this section, each of the compounds is paired with its reported logD.
Answer with a bare number; do not write a unit.

// solved cases for logD follow
- compound: "COc1cc(OC)c(S(=O)(=O)N2c3ccccc3CCC2C)cc1NC(=O)CCc1nn[nH]n1 (stereo not drawn)"
  logD: -0.34
- compound: "COc1cc(OC)c(S(=O)(=O)N2c3ccccc3Oc3ccccc32)cc1NC(=O)/C=C/C(=O)O"
  logD: -0.71
- compound: "COc1cc(OC)c(S(=O)(=O)N2c3ccccc3Oc3ccccc32)cc1NC(=O)[C@@H]1C(C)[C@H]1C(=O)O (mixture of isomers)"
  logD: 0.06

Q: Which measured logD value corresponds to COc1cc(OC)c(S(=O)(=O)N2c3ccccc3CCC2C)cc1NC(=O)Cc1ccnc(F)c1 (stereo not drawn) ?
Result: 2.49

Q: Find the recorded logD belonging to COc1cc(OC)c(S(=O)(=O)N2c3ccccc3CCC2C)cc1NC(=O)[C@@H]1C(C)[C@H]1C(=O)O (mixture of isomers) and report it.
Result: -0.39

Q: Which value of logD has been reported for "COc1cc(OC)c(S(=O)(=O)N2c3ccccc3Oc3ccccc32)cc1NC(=O)Cc1ccnc(F)c1" in the records?
Result: 3.37

Q: Data request, read-out logD, for "COc1cc(OC)c(S(=O)(=O)N2c3ccccc3Sc3ccccc32)cc1NC(=O)CCC(=O)O"
Result: -0.31

Q: Could you tell me which logD is on file for COc1cc(O)c(S(=O)(=O)N2c3ccccc3CCC2C)cc1NC(=O)CCC(=O)O (stereo not drawn) ?
Result: -0.27
